# Tested on: RTV-268, patient 97-268 (RT M41L, D67N, M184V, L210W, T215Y, K219Q, P236L)
# PROTOCOL_SUMMARY: Phenotypic susceptibility assay (patient RTV)
# Type: cell-based, HIV-1
# CONDITION_INFO: patient virus RTV-268 vs reference virus
MEASURED_ENDPOINT: change in susceptibility

INPUT_SMILES	OBSERVED
Cc1cn([C@H]2C[C@H](N=[N+]=[N-])[C@@H](CO)O2)c(=O)[nH]c1=O	significant resistance
Nc1ccn([C@@H]2CS[C@H](CO)O2)c(=O)n1	significant resistance
